Task for the reader: assign each of the following compounds its reported remaining at 20 min, 1 µM.
- measurement-description: in vitro
- stated-conditions: mouse, microsomes, pH 7.4, % Remaining, T=20 min, n=2, mouse liver microsomes, 1 µM, 20 min, n=2
Numbers only; they are read as %.

# input GET /values?readout=remaining at 20 min, 1 µM&item= O=C1NC(=O)C(=C/C=C/c2ccccc2)C(=O)N1 [2i]
# output 0

# input Consider the compound O=C1NC(=O)C(=Cc2ccc(-c3ccccc3F)[nH]2)C(=O)N1 [2h] and give its measured remaining at 20 min, 1 µM.
# output 0.7

# input Param item = COc1cc(C=C2C(=O)NC(=O)NC2=O)ccc1O [2c] ; retrieve measured remaining at 20 min, 1 µM.
# output 9.5

# input Data request, read-out remaining at 20 min, 1 µM, for O=C1NC(=O)C(=Cc2ccc(N3CCOCC3)cc2[N+](=O)[O-])C(=O)N1 [2e]
# output 99.7

Each recorded value in this set is attributed to paper PMC12481576.
